Measured values drawn from ChEMBL document CHEMBL1155519 for this set.

# MEASUREMENT_PROTOCOL: Inhibition of CK2
MEASURED_PROPERTY: Ki

QUERY: Could you tell me which Ki is on file for "Cc1nc(N)sc1-c1ccnc(Nc2ccc(N3CCOCC3)cc2)n1" ?
RESULT: > 10 µM

---

# ASSAY_TARGET: Aurora kinase A (Homo sapiens)
# Sequence (O14965 whole entry): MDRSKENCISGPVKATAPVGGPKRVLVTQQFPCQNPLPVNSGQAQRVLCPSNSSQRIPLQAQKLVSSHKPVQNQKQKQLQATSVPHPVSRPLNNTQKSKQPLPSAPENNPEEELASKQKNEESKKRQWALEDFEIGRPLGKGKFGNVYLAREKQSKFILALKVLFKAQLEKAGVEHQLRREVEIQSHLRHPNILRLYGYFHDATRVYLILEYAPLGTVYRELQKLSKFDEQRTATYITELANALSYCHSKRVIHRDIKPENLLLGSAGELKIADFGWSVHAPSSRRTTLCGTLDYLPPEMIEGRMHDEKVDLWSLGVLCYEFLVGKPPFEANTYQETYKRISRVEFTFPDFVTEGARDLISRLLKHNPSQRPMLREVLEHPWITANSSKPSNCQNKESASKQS
# MEASUREMENT_PROTOCOL: Inhibition of human recombinant Aurora A after 30 mins
Recorded Ki, one value per entry.
Lab book: enter the figure in nM, no units written.

Worked examples, 2 molecules total:
sample_smiles=CNc1nc(C)c(-c2ccnc(Nc3cc(OC)c(OC)c(OC)c3)n2)s1 measured_property=Ki unit_abbreviation=nM recorded_measurement=1
sample_smiles=Cc1nc(C)c(-c2ccnc(Nc3ccc(N4CCOCC4)cc3)n2)s1 measured_property=Ki unit_abbreviation=nM recorded_measurement=4

For the next question, use this molecule.
QUERY: API: value(readout= Ki, system= Aurora kinase A (Homo sapiens), query= "CNc1nc(C)c(-c2ccnc(Nc3ccc(N4CCN(C(C)=O)CC4)cc3)n2)s1" )
RESULT: 12
